Tested on: GH3-TRE-Luc cell line
testSettings: read-out: AC50 (uM) modified / 1000; Tox21_110001=Tox21_301102; viability, 1 nM T3 present, 24 h
propertyName: CC50 (µM)
Field: numeric (µM). Do not append units.

I have this compound here, `CN(C)C(=S)SSC(=S)N(C)C` , and I need its recorded CC50.
0.0524

---

assayText: in vitro
testSettings: rat, gh3-tre-luc cells, AC50 (uM) modified / 1000, Tox21_110001=Tox21_201394; viability, 1 nM T3 present, 24 h
propertyName: CC50 at 24 h

I have this molecule here, `CC(C)Nc1nc(Cl)nc(NC(C)C)n1` , and I need its recorded CC50 at 24 h.
> 90 µM
